- Tested on: MOLT-4 leukemia
- Assay Procedure: NCI-60 one-dose screen, 48 h
- Test Settings: 10 µM unless noted
- Protocol: Growth inhibition of the MOLT-4 human tumor cell line is measured as a screen for anti-cancer activity. Cells are grown in 96 well plates and exposed to the test compound for 48 hours. Compounds are tested at a single concentration, which is 10^-5 M for most compounds. The reported endpoint is percent growth (GI% or GIPRCNT), where numbers from 0 - 100% represent growth inhibition, and numbers from -100% - 0 represent cell death. For example, a value of 40 represents 60% growth inhibition. […]
Compounds without any hit were thinned out: in the full panel of roughly 83,000, 20% have a hit. The source made the active and inactive calls. How the source made its calls: active means growth percent below 10; inactive means the rest.
Pick one: Yes (active), No (inactive)

Q. What classification did Nc1ccc(S(=O)(=O)O)c2cc(S(=O)(=O)O)cc(O)c12 end up with in this test?
A. No

Q. Outcome? CN1CCN(Cc2ccc(NC(=O)c3[nH]ncc3Nc3ncnc4sc5c(c34)CCCC5)cc2)CC1
A. Yes

Q. What outcome does the record of this test show for O=C(Nc1cccc([N+](=O)[O-])c1)c1ccc(Cl)c(Cl)c1 ?
A. No

Q. Dear colleague, could you share the recorded outcome for CC(=O)C1=C(C)NC(SCc2nnc(-c3ccc(C)cc3)o2)=NC1c1ccc(F)cc1 (stereo unspecified) when you have a moment?
A. No

Q. Recorded call for Cc1cc2c(-c3nc4ccccn4c3NC3CCCCC3)c(O)c(O)cc2c(O)c1-c1c(C)cc2c(-c3nc4ccccn4c3NC3CCCCC3)c(O)c(O)cc2c1O ?
A. No

Q. Each compound tested received a call. Report the one for O=C(NOCCO)c1cc(CN2OCCCC2=O)c(F)c(F)c1Nc1ccc(I)cc1F .
A. No

Q. Hi, do you know how O=C(O)c1ccc2c(c1)nc(Nc1cccc(Cl)c1)c1ccncc12 came out in this test?
A. Yes

Q. What did this assay record as the result for Cc1cc(C)n(CC(=O)Nc2ccc(-c3nc4ccccc4s3)cc2)n1 ?
A. No

Q. Which result was noted for this compound in the test: CN1CC[C@@H](c2c(O)cc(O)c3c(=O)cc(-c4ccccc4Cl)oc23)[C@@H]1CO
A. Yes

Q. Outcome? Cc1cc(-c2cc(OC(=O)c3ccccc3)ccc2Cl)cc2nnc(Nc3ccc(OCCN4CCCC4)cc3)nc12
A. No

Q. Tell me the assay call for COC(=O)CNC(=O)[C@@H](OC)[C@@H]1Cc2cc3cc(OC4CC(OC5CC(O)C(O)C(C)O5)C(O)C(C)O4)c(C)c(O)c3c(O)c2C(=O)[C@H]1OC1CC(OC2CC(OC3CC(C)(O)C(O)C(C)O3)C(O)C(C)O2)C(O)C(C)O1 (stereo partly specified) please.
A. Yes

Q. # lookup: test call for CNC(=O)c1ccccc1Nc1nc(Nc2ccc3c(c2OC)CCC[C@H](N2CCN(CCO)CC2)C3)ncc1Cl
A. Yes

Q. Please let me know the test result on file for CNC(=O)c1nn(C)c2c1C(C)(C)Cc1cnc(Nc3ccc(N4CCN(C)CC4)cc3)nc1-2 .
A. Yes

Q. Lab log entry: O=C(O)c1ccc(Nc2ncc3c(n2)-c2ccc(Cl)cc2C(c2c(F)cccc2F)=NC3)cc1 — outcome as called in the assay?
A. No

Q. Give the logged outcome of this assay for the following compound: COc1cnc2c(c1)C(=O)c1c-2n(CCCN2CCC(N)CC2)c(=O)c2cc([N+](=O)[O-])ccc12
A. Yes

Q. For this compound, state the assay outcome: COC(=O)[C@]12CC[C@@H](C)[C@H](C)[C@@H]1C1=CC[C@@H]3[C@@]4(C)C[C@@H](OC(=O)/C=C/c5ccccc5)[C@H](O)[C@@](C)(CO)[C@@H]4[C@H](O)C[C@@]3(C)[C@]1(C)CC2
A. Yes
